Just for reference, patent US12655116B2 is where these values come from.

# Tested on: ALOMY
# PROTOCOL_DETAILS: Pre-emergence herbicidal action against ALOMY
# Type: in vivo, Alopecurus myosuroides
# TEST_PARAMETERS: Alopecurus myosuroides, pre-emergence, 504 h; 20 g/ha; scored visually after 3 weeks, 100% = plants have died, 0% = like control plants
# From the text: Seeds of monocotyledonous and dicotyledonous weed plants and crop plants are laid out in sandy loam soil in wood-fiber pots and covered with soil. […] The damage to the test plants is scored visually after a test period of 3 weeks by comparison with untreated controls (herbicidal activity in percent (%): 100% activity=the plants have died, 0% activity=like control plants). […]
As shown below, each of these compounds has a reported pest or weed control at 20 g/ha value.
API: value field is a number in %; no unit string.

Completed entries (count: 2):
[
  {
    "MOLECULE_SMILES": "CCCNC(=O)c1c(Br)ccc(C(=O)Nc2nnnn2C)c1Cl",
    "pest or weed control at 20 g/ha / %": 90
  },
  {
    "MOLECULE_SMILES": "CCn1nnnc1NC(=O)c1ccc(C(F)(F)F)c(C(=O)NC2CC2)c1OC",
    "pest or weed control at 20 g/ha / %": 90
  }
]

Recall the recorded pest or weed control at 20 g/ha for CCn1nnnc1NC(=O)c1ccc(Br)c(C(=O)NC2CC2)c1Cl with ALOMY and state it.
80

Recall the recorded pest or weed control at 20 g/ha for CCCNC(=O)c1c(C(F)(F)F)ccc(C(=O)Nc2nnnn2CC)c1C with ALOMY and state it.
90

Recall the recorded pest or weed control at 20 g/ha for CCn1nnnc1NC(=O)c1ccc(Cl)c(C(=O)NC2CC2)c1Cl with ALOMY and state it.
100

Recall the recorded pest or weed control at 20 g/ha for CCCNC(=O)c1c(C(F)F)ccc(C(=O)Nc2nnnn2CC)c1C with ALOMY and state it.
80

Recall the recorded pest or weed control at 20 g/ha for Cn1nnnc1NC(=O)c1ccc(Br)c(C(=O)NC2CC2)c1Cl with ALOMY and state it.
80

Recall the recorded pest or weed control at 20 g/ha for CCc1c(C(=O)Nc2nnnn2CC)ccc(C(F)F)c1C(=O)NC1CC1 with ALOMY and state it.
80

Recall the recorded pest or weed control at 20 g/ha for CCn1nnnc1NC(=O)c1ccc(C(F)(F)F)c(C(=O)NC(C)C)c1C with ALOMY and state it.
90

Recall the recorded pest or weed control at 20 g/ha for Cn1nnnc1NC(=O)c1ccc(C(F)(F)F)c(C(=O)NCC(F)(F)F)c1Cl with ALOMY and state it.
90

Recall the recorded pest or weed control at 20 g/ha for Cn1nnnc1NC(=O)c1ccc(Cl)c(C(=O)NC2CC2)c1Br with ALOMY and state it.
100

###

# Test system: MATIN
# PROTOCOL_DETAILS: Post-emergence herbicidal action against MATIN
# Format: in vivo, Matricaria inodora
# TEST_PARAMETERS: Tripleurospermum inodorum, 504 h, dosage 80 g/ha
# Protocol: Seeds of monocotyledonous and dicotyledonous weed and crop plants are laid out in sandy loam soil in wood-fiber pots, covered with soil and cultivated in a greenhouse under good growth conditions. 2 to 3 weeks after sowing, the test plants are treated at the one-leaf stage. […]
As shown below, each of these compounds has a reported pest or weed control at 80 g/ha value.
Write your answer as a measured quantity: the number, then the unit.

Item under review: CCNC(=O)c1c(C(F)(F)F)ccc(C(=O)Nc2nnnn2CC)c1SC . Reported pest or weed control at 80 g/ha?
90%

Item under review: CCCn1nnnc1NC(=O)c1ccc(C(F)(F)F)c(C(=O)NC)c1Cl . Reported pest or weed control at 80 g/ha?
100%

Item under review: CNC(=O)c1c(C(F)F)ccc(C(=O)Nc2nnnn2C)c1Cl . Reported pest or weed control at 80 g/ha?
100%

Item under review: CCCn1nnnc1NC(=O)c1ccc(C(F)(F)F)c(C(N)=O)c1Cl . Reported pest or weed control at 80 g/ha?
80%

Item under review: CCn1nnnc1NC(=O)c1ccc(C(F)F)c(C(=O)NC)c1Cl . Reported pest or weed control at 80 g/ha?
100%

###

# System: SETVI
# PROTOCOL_DETAILS: Pre-emergence herbicidal action against SETVI
# Format: in vivo, Setaria viridis
# TEST_PARAMETERS: Setaria viridis, 504 h, dosage 80 g/ha
# Text: Seeds of monocotyledonous and dicotyledonous weed plants and crop plants are laid out in sandy loam soil in wood-fiber pots and covered with soil. […] The damage to the test plants is scored visually after a test period of 3 weeks by comparison with untreated controls (herbicidal activity in percent (%): 100% activity=the plants have died, 0% activity=like control plants). […]
RESULT_TYPE: pest or weed control at 80 g/ha

[
  {
    "COMPOUND": "CCn1nnnc1NC(=O)c1ccc(C(F)(F)F)c(C(=O)NC2CC2)c1C1CC1 [Example 2-288]",
    "pest or weed control at 80 g/ha": "100%"
  },
  {
    "COMPOUND": "CNC(=O)c1c(C(F)(F)F)ccc(C(=O)Nc2nnnn2C)c1OC [Example 1-56]",
    "pest or weed control at 80 g/ha": "100%"
  },
  {
    "COMPOUND": "CNC(=O)c1c(C(F)F)ccc(C(=O)Nc2nnnn2C)c1C [Example 1-44]",
    "pest or weed control at 80 g/ha": "100%"
  }
]

Item under review: CNC(=O)c1c(C(F)(F)F)ccc(C(=O)Nc2nnnn2C)c1SC [Example 1-81] . Reported pest or weed control at 80 g/ha?
100%

Item under review: CCn1nnnc1NC(=O)c1ccc(Br)c(C(=O)NC2CC2)c1Br [Example 2-343] . Reported pest or weed control at 80 g/ha?
100%

###

As shown below, each of these compounds has a reported Post-emergence action against ABUTH in % value.
# Test system: ABUTH
# PROTOCOL_DETAILS: Post-emergence herbicidal action against ABUTH
# Assay type: in vivo, Abutilon theophrasti
# TEST_PARAMETERS: dosage 20 g/ha, visual assessment about 3 weeks after treatment vs untreated controls
Write your answer as a measured quantity: the number, then the unit.

Item under review: CCn1nnnc1NC(=O)c1ccc(C(F)(F)F)c(C(=O)NC2CCC2)c1C [Example 2-42] . Reported Post-emergence action against ABUTH in %?
90%

Item under review: Cc1nnc(NC(=O)c2ccc(C(F)F)c(C(=O)NC3CCC3)c2Cl)o1 [Example 6-261] . Reported Post-emergence action against ABUTH in %?
80%

Item under review: NC(=O)c1c(C(F)(F)F)ccc(C(=O)Nc2nnco2)c1Cl [Example 5-253] . Reported Post-emergence action against ABUTH in %?
90%

Item under review: CCn1nnnc1NC(=O)c1ccc(C(F)(F)F)c(C(=O)NCC(F)F)c1C1CC1 [Example 2-291] . Reported Post-emergence action against ABUTH in %?
80%

Item under review: CC(NC(=O)c1c(C(F)(F)F)ccc(C(=O)Nc2nnnn2C)c1C1CC1)C1CC1 (centres unmarked) [Example 1-292] . Reported Post-emergence action against ABUTH in %?
80%

###

# Test system: DIGSA
# PROTOCOL_DETAILS: Post-emergence herbicidal action against DIGSA
# Format: in vivo, Digitaria sanguinalis
# TEST_PARAMETERS: 20 g/ha
# Procedure: Seeds of monocotyledonous and dicotyledonous weed and crop plants are laid out in sandy loam soil in wood-fiber pots, covered with soil and cultivated in a greenhouse under good growth conditions. 2 to 3 weeks after sowing, the test plants are treated at the one-leaf stage. […]
As shown below, each of these compounds has a reported Post-emergence action against DIGSA value.

Completed entries (count: 8):
[
  {
    "COMPOUND": "CCNC(=O)c1c(C(F)F)ccc(C(=O)Nc2nnc(C)o2)c1C",
    "Post-emergence action against DIGSA": "80%"
  },
  {
    "COMPOUND": "Cc1nnc(NC(=O)c2ccc(C(F)(F)F)c(C(=O)NC(C)C3CC3)c2Cl)o1 (stereo not drawn)",
    "Post-emergence action against DIGSA": "90%"
  },
  {
    "COMPOUND": "CCn1nnnc1NC(=O)c1ccc(C(F)F)c(C(=O)NC)c1SC",
    "Post-emergence action against DIGSA": "90%"
  },
  {
    "COMPOUND": "CCNC(=O)c1c(C(F)F)ccc(C(=O)Nc2nnco2)c1Cl",
    "Post-emergence action against DIGSA": "90%"
  },
  {
    "COMPOUND": "Cn1nnnc1NC(=O)c1ccc(C(F)(F)F)c(C(=O)NCC(F)F)c1C1CC1",
    "Post-emergence action against DIGSA": "100%"
  },
  {
    "COMPOUND": "CCCn1nnnc1NC(=O)c1ccc(C(F)(F)F)c(C(=O)NC2CC2)c1C",
    "Post-emergence action against DIGSA": "100%"
  },
  {
    "COMPOUND": "Cc1nnc(NC(=O)c2ccc(C(F)F)c(C(=O)NC(C)C)c2Cl)o1",
    "Post-emergence action against DIGSA": "90%"
  },
  {
    "COMPOUND": "CNC(=O)c1c(C(F)F)ccc(C(=O)Nc2nnco2)c1Cl",
    "Post-emergence action against DIGSA": "90%"
  }
]

Item under review: COCCNC(=O)c1c(C(F)F)ccc(C(=O)Nc2nnnn2C)c1Cl . Reported Post-emergence action against DIGSA?
90%
